- Tested on: ducksalad (Heteranthera limosa)
- Test name: Test B flooded paddy: ducksalad
- Format: in vivo
- Setup conditions: Flood; 125 g ai/ha; applied to paddy water at 2-leaf stage; visually evaluated after 13 to 15 days
# maps each entry to its Plant response rating, Ducksalad (0 to 100 scale, 0 is no effect, 100 is complete control)
No unit in the answer, please; the number alone is enough.

Recorded results for 3 compounds are shown here.
{"columns": ["Smiles notation", "Value observed"],
 "data": [
  ["CCc1nn(-c2ccc(F)cc2F)nc1Oc1ccnc(C(F)(F)F)c1", 30],
  ["CC(C)Cc1nn(-c2ccc(C(F)(F)F)cc2)nc1Oc1ccnc(C(F)F)c1", 0],
  ["COCc1nn(-c2ccc(F)cc2)nc1Oc1ccnc(C(F)(F)F)c1", 0]
]}

// field: Plant response rating, Ducksalad (0 to 100 scale, 0 is no effect, 100 is complete control); key: CCc1nn(-c2ccc(F)cc2)nc1Oc1ccnc(C(F)(F)F)c1 ; value = 70

* * *

- Test system: blackgrass (Alopecurus myosuroides)
- Test name: Test C pre-/postemergence: blackgrass
- Assay type: in vivo
- Setup conditions: Preemergence, 250 g ai/ha; scale 0 to 100, 0 no effect, 100 complete control
# maps each entry to its Plant response rating, Blackgrass
No unit in the answer, please; the number alone is enough.

// field: Plant response rating, Blackgrass; key: Cc1nn(-c2ccc(C(F)(F)F)cc2)nc1Cc1ccnc(C(F)(F)F)c1 ; value = 100

// field: Plant response rating, Blackgrass; key: Fc1ccc(-n2nc(Cc3ccnc(C(F)(F)F)c3)c(OCC(F)(F)F)n2)cc1 ; value = 90

// field: Plant response rating, Blackgrass; key: CCOc1nn(-c2ccc(F)cc2)nc1Cc1ccnc(C(F)F)c1 ; value = 90

// field: Plant response rating, Blackgrass; key: CCCc1nn(-c2ccc(F)cc2)nc1Cc1ccnc(C(F)(F)F)c1 ; value = 90

// field: Plant response rating, Blackgrass; key: Cc1nn(-c2ccc(C(F)(F)F)c(F)c2)nc1Cc1ccnc(C(F)(F)F)c1 ; value = 95

* * *

- System: foxtail, giant (giant foxtail, Setaria faberii)
- Test name: Test A pre-/postemergence: foxtail, giant
- Assay type: in vivo
- Setup conditions: Preemergence, 125 g ai/ha; 0 to 100 scale (0 no effect, 100 complete control)
# maps each entry to its Plant response rating, Foxtail, Giant
No unit in the answer, please; the number alone is enough.

{"columns": ["Smiles notation", "Plant response rating, Foxtail, Giant"],
 "data": [
  ["Cc1nn(-c2ccc(C(F)(F)F)cc2)nc1Cn1ccc(C(F)(F)C(F)(F)F)n1", 80],
  ["Cc1nn(-c2ccccc2Cl)nc1C(=O)c1cccc(C(F)(F)F)c1", 0],
  ["Cc1nn(-c2ccc(C(F)(F)F)cn2)nc1Cn1nc(C(F)(F)F)cc1C", 0],
  ["Cc1nn(-c2ccc(F)cc2)nc1Cc1ccnc(OCC(F)(F)F)c1", 0],
  ["Cc1nn(-c2ccc(Cl)cc2)nc1C(=O)c1cccc(C(F)(F)F)c1", 10],
  ["COc1nn(-c2ccc(C(F)(F)F)cc2)nc1C(=O)c1ccnc(C(F)(F)F)c1", 50]
]}

// field: Plant response rating, Foxtail, Giant; key: Cc1nn(-c2cccc([N+](=O)[O-])c2)nc1C(=O)c1cccc(C(F)(F)F)c1 ; value = 0

// field: Plant response rating, Foxtail, Giant; key: COc1nn(-c2ccc(F)cc2)nc1Oc1ccnc(C(F)(F)F)c1 ; value = 30
